Listed here are molecules together with their documented pIC50.
# Study system: Nav1.6 (Homo sapiens)
# Sequence (Q9UQD0 whole entry): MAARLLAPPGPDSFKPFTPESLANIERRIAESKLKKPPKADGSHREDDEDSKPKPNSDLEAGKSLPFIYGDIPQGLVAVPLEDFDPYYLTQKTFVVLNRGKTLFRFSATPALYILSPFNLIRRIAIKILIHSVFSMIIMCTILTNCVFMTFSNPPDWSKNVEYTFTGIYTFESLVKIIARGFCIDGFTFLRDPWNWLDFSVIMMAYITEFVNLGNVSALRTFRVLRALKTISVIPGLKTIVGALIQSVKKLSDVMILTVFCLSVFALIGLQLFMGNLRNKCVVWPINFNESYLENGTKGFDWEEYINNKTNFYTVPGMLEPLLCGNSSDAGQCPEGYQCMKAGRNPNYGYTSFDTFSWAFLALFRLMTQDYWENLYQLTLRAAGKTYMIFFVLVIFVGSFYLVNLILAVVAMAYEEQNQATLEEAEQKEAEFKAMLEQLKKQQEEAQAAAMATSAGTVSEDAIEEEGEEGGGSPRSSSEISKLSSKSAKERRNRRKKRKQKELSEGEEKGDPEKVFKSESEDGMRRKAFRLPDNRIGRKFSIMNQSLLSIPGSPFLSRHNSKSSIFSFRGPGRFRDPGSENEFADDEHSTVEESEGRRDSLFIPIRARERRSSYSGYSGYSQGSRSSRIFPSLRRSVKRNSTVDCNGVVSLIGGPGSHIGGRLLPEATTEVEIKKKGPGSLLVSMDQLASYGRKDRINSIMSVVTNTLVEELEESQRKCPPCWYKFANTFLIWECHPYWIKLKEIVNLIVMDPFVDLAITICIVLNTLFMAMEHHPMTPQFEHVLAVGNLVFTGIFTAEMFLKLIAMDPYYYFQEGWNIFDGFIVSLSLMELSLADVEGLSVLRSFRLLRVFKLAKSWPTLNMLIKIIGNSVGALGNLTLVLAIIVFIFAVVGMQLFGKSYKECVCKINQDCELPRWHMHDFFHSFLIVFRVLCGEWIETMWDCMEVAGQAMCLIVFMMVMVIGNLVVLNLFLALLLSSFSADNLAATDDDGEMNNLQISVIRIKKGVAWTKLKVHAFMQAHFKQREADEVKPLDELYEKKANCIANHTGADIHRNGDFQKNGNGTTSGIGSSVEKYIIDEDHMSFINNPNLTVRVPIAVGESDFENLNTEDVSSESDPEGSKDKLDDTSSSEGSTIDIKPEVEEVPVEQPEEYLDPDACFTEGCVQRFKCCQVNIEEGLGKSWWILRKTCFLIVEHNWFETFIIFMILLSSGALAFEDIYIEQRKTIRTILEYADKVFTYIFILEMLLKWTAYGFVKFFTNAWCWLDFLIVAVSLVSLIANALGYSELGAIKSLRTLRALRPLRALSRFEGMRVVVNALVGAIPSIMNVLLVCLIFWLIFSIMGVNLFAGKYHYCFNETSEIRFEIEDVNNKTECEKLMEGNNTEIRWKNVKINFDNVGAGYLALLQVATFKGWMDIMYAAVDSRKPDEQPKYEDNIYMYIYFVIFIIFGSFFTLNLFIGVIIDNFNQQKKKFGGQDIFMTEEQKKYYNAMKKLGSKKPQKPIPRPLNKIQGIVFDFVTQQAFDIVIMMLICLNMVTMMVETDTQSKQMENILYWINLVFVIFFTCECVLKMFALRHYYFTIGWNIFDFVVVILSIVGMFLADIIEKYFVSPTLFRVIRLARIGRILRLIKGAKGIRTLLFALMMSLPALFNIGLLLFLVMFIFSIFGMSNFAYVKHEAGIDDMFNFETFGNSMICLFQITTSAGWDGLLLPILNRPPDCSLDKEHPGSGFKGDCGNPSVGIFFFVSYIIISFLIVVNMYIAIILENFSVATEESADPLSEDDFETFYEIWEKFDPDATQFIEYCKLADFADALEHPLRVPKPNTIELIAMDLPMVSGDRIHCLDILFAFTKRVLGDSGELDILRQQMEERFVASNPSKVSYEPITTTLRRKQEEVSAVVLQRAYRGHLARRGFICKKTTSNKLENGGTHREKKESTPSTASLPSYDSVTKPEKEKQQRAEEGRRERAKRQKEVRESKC
# Assay notes: Nav two-pulse protocol, IonWorks Quattro electrophysiology
# Format: cell-based
# Condition info: -120 mV to 0 mV, compound incubated 300 s, read-out: Nav1.6 Tonic
# Protocol: Compound Plate Preparation Supplied compounds were sent as Assay Ready Plates, with 2 μL per well of compound in DMSO at 300× the final assay concentrations as described above and in the project proposal. All assay plates are stored at in a −80° C. freezer. On the day of the assay, 198 μL of external solution was added to the appropriate assay plate and mixed thoroughly. […] The parameters measured were the maximum inward current evoked on stepping to 0 mV from the 1st and 2nd pulse. […]
pIC50: −log10 of the molar value.

- Molecule: "O=C(NCc1ccc(F)c(F)c1)C1CCN(Cc2cccc(Oc3ccccc3)c2)C1 (stereo not drawn) [Compound 80]"
  pIC50: "4.70 to 5.00"
- Molecule: "CC(C)COc1cccc(CN2CCC(c3noc(-c4cc(Cl)ccn4)n3)C2)c1 (stereo not drawn) [Compound 53]"
  pIC50: "< 4.70"
- Molecule: "O=C(NCc1ccccn1)C1CCN(Cc2cccc(Oc3ccc(F)cc3F)c2)C1 (stereo not drawn) [Compound 8]"
  pIC50: "< 4.70"
- Molecule: "CC(C)COc1cccc(CN2CCC(c3noc(-c4ccccn4)n3)C2)c1 (stereo not drawn) [Compound 48]"
  pIC50: "< 4.70"
- Molecule: "O=C(NCC1CCCO1)C1CCN(Cc2cccc(Oc3ccccc3)c2)C1 (stereo not drawn) [Compound 87]"
  pIC50: "> 5.00"
- Molecule: "O=C(C1CN(Cc2cccc(Oc3ccccc3)c2)CCO1)N1CCOCC1 (stereo not drawn) [Compound 106]"
  pIC50: "< 4.70"
- Molecule: "Cc1cccc(Oc2cccc(CN3CCC(F)(C(=O)NCc4ccccn4)C3)c2)c1 (stereo not drawn) [Compound 21]"
  pIC50: "< 4.70"
- Molecule: "COc1ccnc(-c2nc(C3CCN(Cc4cccc(OCC(C)C)c4)C3)no2)c1 (stereo not drawn) [Compound 52]"
  pIC50: "< 4.70"
- Molecule: "COc1ccc(CNC(=O)C2CCN(Cc3cccc(Oc4ccccc4)c3)C2)cc1 (stereo not drawn) [Compound 66]"
  pIC50: "4.70 to 5.00"

---

# Study system: Nav1.6 (Homo sapiens)
# Assay notes: Nav two-pulse protocol, IonWorks Quattro electrophysiology
# Type: cell-based
# Condition info: -120 mV to 0 mV, compound incubated 300 s, read-out: Nav1.6 inac
# Protocol: Compound Plate Preparation Supplied compounds were sent as Assay Ready Plates, with 2 μL per well of compound in DMSO at 300× the final assay concentrations as described above and in the project proposal. All assay plates are stored at in a −80° C. freezer. On the day of the assay, 198 μL of external solution was added to the appropriate assay plate and mixed thoroughly. […] The parameters measured were the maximum inward current evoked on stepping to 0 mV from the 1st and 2nd pulse. […]

- Molecule: "CC(C)COc1cccc(CN2CCC(n3cc(-c4cccc(Br)n4)nn3)C2)c1 (stereo not drawn)"
  IC50: "> 5 µM"
- Molecule: "Cc1cc(C)cc(Oc2cccc(CN3CCC(C(=O)NCc4ccccn4)C3)c2)c1 (stereo not drawn)"
  IC50: "< 1 µM"
- Molecule: "O=C(NCc1ccccn1)C1CCN(Cc2cccc(Oc3ncccn3)c2)C1 (stereo not drawn)"
  IC50: "> 5 µM"
- Molecule: "CC1(C(=O)NCc2ccccn2)CCN(Cc2cccc(Oc3ncccn3)c2)C1 (stereo not drawn)"
  IC50: "> 5 µM"
- Molecule: "CC1(C(=O)NCc2ccccn2)CCCN(Cc2cccc(Oc3ccccc3)c2)C1=O (stereo not drawn)"
  IC50: "< 1 µM"
- Molecule: "CCNC(=O)C1CN(Cc2cccc(Oc3ccccc3)c2)CCO1 (stereo not drawn)"
  IC50: "1 to 5 µM"
- Molecule: "O=C(NCc1nc(-c2ccccc2)cs1)C1CCN(Cc2cccc(Oc3ccccc3)c2)C1 (stereo not drawn)"
  IC50: "1 to 5 µM"
- Molecule: "Cc1cccc(-c2cn(C3CCN(Cc4cccc(OCC(C)C)c4)C3)nn2)n1 (stereo not drawn)"
  IC50: "> 5 µM"
- Molecule: "COc1ccc(Oc2cccc(CN3CCC(C(=O)NCc4ccccn4)C3)c2)cc1 (stereo not drawn)"
  IC50: "> 5 µM"
